EXPERIMENTAL TARGET: Beta-3 adrenergic receptor (Rattus norvegicus) (UniProt P26255)
Sequence (P26255 whole entry): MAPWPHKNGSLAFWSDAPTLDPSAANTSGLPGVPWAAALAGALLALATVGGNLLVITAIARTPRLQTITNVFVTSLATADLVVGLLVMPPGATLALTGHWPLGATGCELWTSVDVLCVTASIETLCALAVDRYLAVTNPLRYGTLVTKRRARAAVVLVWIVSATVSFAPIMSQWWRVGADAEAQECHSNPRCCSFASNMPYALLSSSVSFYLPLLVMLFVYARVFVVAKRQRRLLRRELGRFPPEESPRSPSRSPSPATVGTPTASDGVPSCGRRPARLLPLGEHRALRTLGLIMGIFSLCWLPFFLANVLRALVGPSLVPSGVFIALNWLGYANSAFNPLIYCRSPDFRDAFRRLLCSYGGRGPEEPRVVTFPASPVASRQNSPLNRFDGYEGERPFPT
ASSAY REMARKS: Beta-3-adrenergic activity measured by percent response against free fatty acid (FFA) in rat plasma at a dosage of 0.1 mg/kg
Format: functional, organism-based
Design: dose 0.1 mg/kg
Class TRUE: Response at least 50%. Class FALSE: Response below 50%.

Record excerpt, results attached:
CCC(CC)COC(=O)C1(C(=O)OCC(CC)CC)Oc2ccc(C[C@@H](C)NC[C@H](O)c3cccc(Cl)c3)cc2O1: TRUE
CC(=O)OCOC(=O)C1(C(=O)OCOC(C)=O)Oc2ccc(C[C@@H](C)NC[C@H](O)c3cccc(Cl)c3)cc2O1: FALSE
C=CCOC(=O)C1(C(=O)OCC=C)Oc2ccc(C[C@@H](C)NC[C@H](O)c3cccc(Cl)c3)cc2O1: TRUE

Entry C[C@H](Cc1ccc2c(c1)OC(C(=O)OC/C=C/c1ccccc1)(C(=O)OC/C=C/c1ccccc1)O2)NC[C@H](O)c1cccc(Cl)c1 : is its Response no less than 50%? TRUE

Entry C[C@H](Cc1ccc2c(c1)OC(C(=O)OC[Si](C)(C)C)(C(=O)OC[Si](C)(C)C)O2)NC[C@H](O)c1cccc(Cl)c1 : is its Response no less than 50%? TRUE

* * *

EXPERIMENTAL TARGET: Beta-3 adrenergic receptor (Rattus norvegicus)
ASSAY REMARKS: Beta-3-adrenergic activity measured by percent response against free fatty acid (FFA) in rat plasma at a dosage of 0.1 mg/kg
Format: functional, organism-based
Set-up: dose 0.1 mg/kg
For each record, check the reported Response: if it is below 50% write 1, else write -1.

Take the compound CCCOC(=O)COC(=O)C1(C(=O)OCC(=O)OCCC)Oc2ccc(C[C@@H](C)NC[C@H](O)c3cccc(Cl)c3)cc2O1 and say whether its Response is less than 50%. 1

* * *

Listed next: entries and their corresponding Response.
EXPERIMENTAL TARGET: Beta-3 adrenergic receptor (Rattus norvegicus) (UniProt P26255)
ASSAY REMARKS: Beta-3-adrenergic activity measured by percent response against free fatty acid (FFA) in rat plasma at a dosage of 0.1 mg/kg
Assay type: functional, organism-based
Set-up: dose 0.1 mg/kg

C[C@H](Cc1ccc2c(c1)OC(C(=O)OCc1ccccc1)(C(=O)OCc1ccccc1)O2)NC[C@H](O)c1cccc(Cl)c1: 21%
CCC(=O)OCOC(=O)C1(C(=O)OCOC(=O)CC)Oc2ccc(C[C@@H](C)NC[C@H](O)c3cccc(Cl)c3)cc2O1: 10%
CC(C)CCOC(=O)C1(C(=O)OCCC(C)C)Oc2ccc(C[C@@H](C)NC[C@H](O)c3cccc(Cl)c3)cc2O1: 109%
CCCCOCCOC(=O)C1(C(=O)O)Oc2ccc(C[C@@H](C)NC[C@H](O)c3cccc(Cl)c3)cc2O1 (some centres not stated): 83%
CCCCCCCCOC(=O)C1(C(=O)OCCCCCCCC)Oc2ccc(C[C@@H](C)NC[C@H](O)c3cccc(Cl)c3)cc2O1: 46%
C[C@H](Cc1ccc2c(c1)OC(C(=O)OCCCc1ccccc1)(C(=O)OCCCc1ccccc1)O2)NC[C@H](O)c1cccc(Cl)c1: 61%

Endpoint output: Response of C[C@H](Cc1ccc2c(c1)OC(C(=O)O)(C(=O)OCC1CCCCC1)O2)NC[C@H](O)c1cccc(Cl)c1 (some centres not stated) . Value? 47%
